- assay_procedure: NCI Yeast Anticancer Drug Screen. Data for the bub3 strain (AID 167)
- assay_context: S. cerevisiae bub3 mutant strain, at 50.0 µM, active compounds read high
Compounds without any hit were thinned out: in the full panel of roughly 79,000, 15% have a hit.
Decision: growth inhibition compared against 10%; not below it gives yes (1), below it gives no (0).

- compound: "O=C(O)c1ccc(OC2CCCCC2)cc1"
  answer_label: "yes (1)"
- compound: "O=C1c2ccccc2-c2cccc(I)c21"
  answer_label: "no (0)"
- compound: "COc1ccc(-c2nnc(-c3ccc(OC)cc3)o2)cc1"
  answer_label: "no (0)"
- compound: "O=C(c1nc2cc([N+](=O)[O-])ccc2[nH]c1=O)C(O)c1ccco1 (configuration not stated)"
  answer_label: "no (0)"
- compound: "COc1ccc(COc2ccc([N+](=O)[O-])cc2)cc1"
  answer_label: "no (0)"
- compound: "CS(=O)(=O)Nc1ccccc1-c1nc2ccccc2c(=O)o1"
  answer_label: "yes (1)"
- compound: "CC(C)(C)c1cc(C(=O)Nc2cc(Br)c(Br)cc2S(N)(=O)=O)cc(C(C)(C)C)c1O"
  answer_label: "yes (1)"
- compound: "C#CN1C(=O)c2c(c(-c3ccccc3)c(-c3ccc(Oc4ccc(-c5c(-c6ccccc6)c6c(c(-c7ccccc7)c5-c5ccccc5)C(=O)N(C#C)C6=O)cc4)cc3)c(-c3ccccc3)c2-c2ccccc2)C1=O"
  answer_label: "no (0)"
- compound: "O=c1c2cnccc2cc2n1CCc1c-2[nH]c2ccccc12"
  answer_label: "yes (1)"
- compound: "O=C1CC(c2ccccc2)NCN1 (configuration not stated)"
  answer_label: "no (0)"
- compound: "Cc1ccsc1/C=N/Nc1cc(C)c2ccccc2n1"
  answer_label: "yes (1)"
- compound: "Fc1ccc(Nc2cc(F)cc(F)c2)cc1"
  answer_label: "yes (1)"

* * *

- assay_procedure: NCI Yeast Anticancer Drug Screen. Data for the rad50 strain (AID 155);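 further: 0% = growth of vehicle-only cultures of the same strain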
- assay_context: S. cerevisiae rad50 strain growth inhibition; at 50.0 µM; active compounds read high
The panel holds about 79,000 compounds, 15% with a hit somewhere; the sample as a whole holds those more often.

- compound: "CCOC(=O)c1cccc(NC(=O)CCl)c1"
  display_unit: "%"
  growth inhibition: 43.2
- compound: "COc1ccc(I)cc1"
  display_unit: "%"
  growth inhibition: -1.85
- compound: "O=C1C2C3C=CC(O3)C2C(=O)N1CCN1CCCCC1 (configuration not stated)"
  display_unit: "%"
  growth inhibition: -0.75
- compound: "COc1ccc2c(c1)CCC1C(=O)NN=C21 (configuration not stated)"
  display_unit: "%"
  growth inhibition: 12.8
- compound: "O=S(=O)(Cc1cccs1)c1ncc(Br)cn1"
  display_unit: "%"
  growth inhibition: 9.25
- compound: "CC1(CCC(=O)c2ccc3c(c2)OCO3)OCCO1"
  display_unit: "%"
  growth inhibition: 31.8
- compound: "c1ccc(C2OC(c3ccccc3)c3ccccc32)cc1 (configuration not stated)"
  display_unit: "%"
  growth inhibition: 7.55

* * *

- assay_procedure: NCI Yeast Anticancer Drug Screen. Data for the mlh1 rad18 strain (AID 175)
- assay_context: S. cerevisiae mlh1 rad18 strain growth inhibition; at 50.0 µM; active compounds read high
Compounds without any hit were thinned out: in the full panel of roughly 79,000, 15% have a hit.
measurement_name: growth inhibition (%)

- compound: "COc1ccc(/C=C2\\Cc3ccccc3C2=O)cc1OC"
  measurement_name: "growth inhibition"
  obs_value: -1.5
- compound: "Cc1ccc(N=Cc2ccc3c(c2)OCO3)cc1C"
  measurement_name: "growth inhibition"
  obs_value: 29.2
- compound: "O=C(O)C(C(=O)O)C(c1ccccc1)c1ccccc1Br (configuration not stated)"
  measurement_name: "growth inhibition"
  obs_value: 29.5
- compound: "CCOC(=O)c1ccc(NCc2ccc3nc(OC)c(OC)nc3c2)cc1"
  measurement_name: "growth inhibition"
  obs_value: -19.4
- compound: "CC(C)n1nnnc1-c1ccccc1"
  measurement_name: "growth inhibition"
  obs_value: 1.15
- compound: "Cc1ccc(NCCN(C)C)c2c(=O)c3cccc(O)c3sc12"
  measurement_name: "growth inhibition"
  obs_value: 65
- compound: "CCCCOC(=O)C1CC2CC1C1OC21 (configuration not stated)"
  measurement_name: "growth inhibition"
  obs_value: -33.5
